- Tested on: Receptor-type tyrosine-protein kinase FLT3 (Homo sapiens), P36888 [D835H]
- Sequence (whole entry): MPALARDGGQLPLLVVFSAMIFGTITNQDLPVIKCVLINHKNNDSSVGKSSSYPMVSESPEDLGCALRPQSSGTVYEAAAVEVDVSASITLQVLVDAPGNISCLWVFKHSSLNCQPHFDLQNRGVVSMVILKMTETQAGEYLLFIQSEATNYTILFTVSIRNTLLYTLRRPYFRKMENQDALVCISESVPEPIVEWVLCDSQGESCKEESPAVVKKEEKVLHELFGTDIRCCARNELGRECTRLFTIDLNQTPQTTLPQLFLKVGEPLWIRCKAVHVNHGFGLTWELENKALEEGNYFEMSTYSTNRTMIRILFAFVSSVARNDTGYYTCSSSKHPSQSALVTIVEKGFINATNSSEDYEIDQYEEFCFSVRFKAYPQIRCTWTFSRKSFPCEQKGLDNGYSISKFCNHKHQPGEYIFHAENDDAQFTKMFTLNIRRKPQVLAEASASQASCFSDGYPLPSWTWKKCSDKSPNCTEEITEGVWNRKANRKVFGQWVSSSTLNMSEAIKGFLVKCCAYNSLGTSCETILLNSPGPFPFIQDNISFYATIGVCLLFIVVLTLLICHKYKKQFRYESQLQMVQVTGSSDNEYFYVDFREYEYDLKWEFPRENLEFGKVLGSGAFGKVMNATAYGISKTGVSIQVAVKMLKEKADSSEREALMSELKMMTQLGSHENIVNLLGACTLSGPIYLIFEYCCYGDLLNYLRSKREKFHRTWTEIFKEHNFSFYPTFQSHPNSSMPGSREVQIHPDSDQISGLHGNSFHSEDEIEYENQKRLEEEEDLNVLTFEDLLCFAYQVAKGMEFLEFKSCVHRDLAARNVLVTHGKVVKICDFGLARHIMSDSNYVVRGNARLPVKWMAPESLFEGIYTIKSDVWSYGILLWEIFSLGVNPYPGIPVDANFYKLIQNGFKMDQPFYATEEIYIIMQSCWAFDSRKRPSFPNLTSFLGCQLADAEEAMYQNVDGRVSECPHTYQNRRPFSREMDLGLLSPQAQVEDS
- procedureSummary: Competitive binding affinity to FLT3 D835H mutant (unknown origin) at 10 uM in presence of ATP relative to control
experimentalEndpoint: inhibition (%)
I only need the number, in %, no unit after it.

Examples with their reported inhibition follow.
• O[C@H]1CC[C@H](Nc2nccc(-c3n[nH]c4ccccc34)n2)CC1 = 100
• O[C@H]1CC[C@H](Nc2nccc(-n3nnc4ccccc43)n2)CC1 = 99

Here's the next entry for you.
Data request: Hello, please tell me recorded inhibition for this one: O[C@H]1CC[C@H](Nc2nccc(-n3ncc4ccccc43)n2)CC1
Data returned: 100
